Give koff for every item shown.
target: HLA-A*0201 loaded with the Carcinoembryonic antigen (CEA)-derived … peptide (biotinylated on the C-terminal biotinylation tag); experiment: SPR (Biacore), Example 4

-- ask # input binder: SEQ ID NO 68 (receptor) MHLPKPTLWAEPGSVITLRSPVTLRCQGGQETQEYRLYREKKTAPWITRIPQELVKKGQFPIPSITWEHAGRYRCYYGSDTSQWSASSDPLELVVTGVYIKPTLSAQPSPVVNSGGNVTLQCDSQVAFDGFILCKEGEDEHPQCLNSQPHARGSSRAIFSVGPVSPSRRWWYRCYAYDSNSPYEWSLPSDLLELDVDG ; wanted: its koff
-- reply ≤ 2 s⁻¹

-- ask Repeat for the following binder: SEQ ID NO 62 (receptor) MHLPKPTLWAEPGSVITMDQPVTLRCQGGQETQEYRLYREKKTAPWITRIPQELVKKGQFPIPSITWEHAGRYRCYYGSDTSQWSASSDPLELVVTGVYIKPTLSAQPSPVVNSGGNVTLQCDSQVAFDGFILCKEGEDEHPQCLNSQPHARGSSRAIFSVGPVSPSRRWWYRCYAYDSNSPYEWSLPSDLLELDVDG
-- reply ≤ 2 s⁻¹

-- ask Quick one: SEQ ID NO 23 (receptor) MGHLPKPTLQAEPGSVITQGSPVTLRCQGGQETQEYRLYREKKTAPWITRIPQELVKKGQFPIPSITWEHAGRYRCVIQRGTAGRSESSDPLELVVTGVYIKPTLSAQPSPVVNSGGNVTLQCDSQVAFDGFILCKEGEDEHPQCLNSQPHARGSSRAIFSVGPVSPSRRWWYRCYAYDSNSPYEWSLPSDLLELLVL
-- reply ≤ 2 s⁻¹
